Answer each item with its documented melting point.
Where a name gives a salt, the structure may show the parent alone.

Recorded melting point of c1ccc2c(-c3nc(N4CCN5CCC4CC5)no3)cccc2c1 (as salt: HBr) , please. 256 to 258 °C

Recorded melting point of C1CNC(c2nc(N3CCN4CCC3CC4)no2)CN1 (stereo not drawn) (as salt: HBr) , please. 247 to 248 °C

Recorded melting point of c1cc(-c2nc(N3CCN4CCC3CC4)no2)ccn1 (as salt: HBr) , please. 269 to 272 °C

Recorded melting point of c1cncc(-c2nc(N3CCN4CCC3CC4)no2)c1 (as salt: HBr) , please. 260 to 264 °C

Recorded melting point of c1coc(-c2nc(N3CCN4CCC3CC4)no2)c1 (as salt: HBr) , please. 249 to 251 °C

Recorded melting point of c1ccc2sc(-c3nc(N4CCN5CCC4CC5)no3)cc2c1 (as salt: HBr) , please. 258 to 260 °C
